- method summary: qHTS assay to identify small molecule antagonists of the peroxisome proliferator-activated receptor delta (PPARd) signaling pathway - cell viability counter screen (AID 743213); also: nearly all actives have a fitted effect of over 50% in size
- condition details: PPARd-bla HEK293H viability, CellTiter-Glo luminescence, 17 h; series mostly up to 62 µM
Records with an inconclusive call do not appear. The source made the active and inactive calls. Calls follow the shape of the dose curve; as a rule, active = well fitted cell-killing curve with a large enough effect in the repeat runs; inconclusive = weak or mixed curves; inactive = no such curve, though single readings can be large or run the other way.
Labels: t = active, f = inactive

1) CCCCOC(=O)CO : f
2) [Cu+] : f
3) Nc1ccc(NCCO)c([N+](=O)[O-])c1 : f
4) O=C(c1ccc(O)c(O)c1)c1ccc(O)cc1O : f
5) COc1cc(C)ccc1O : f
6) Cc1nc(-c2ccc(Cl)cc2)oc1COC(C)(C)C(=O)O : f
7) O=C(O)Cc1ccccc1Nc1c(Cl)cccc1Cl : f
8) Cc1cc(C)c(/C=C2\C(=O)Nc3ccccc32)[nH]1 : f
9) CC(C)OC(=O)C(O)(CC(=O)O)CC(=O)O : f
10) Cc1c(C)c([N+](=O)[O-])c(C(C)(C)C)c([N+](=O)[O-])c1C : f
11) Clc1ccnc(Cl)n1 : f
12) Nc1ccc(C(=O)O)c(O)c1 : f
13) COc1ccc(NC(=O)CC(C)=O)cc1 : f
14) CCCC(=O)OCOC(=O)C1=C(C)NC(C)=C(C(=O)OC)C1c1cccc(Cl)c1Cl (stereo not drawn) : f
15) COc1cccc2c1C(=O)c1c(O)c3c(c(O)c1C2=O)C[C@@](O)(C(C)=O)C[C@@H]3O[C@H]1C[C@H](N)[C@H](O)[C@H](C)O1 : t
16) ClCCl : f
17) CCN(CC)C(=O)c1cc(S(=O)(=O)Cc2ccccc2)c(N2CCC(c3ccccc3)CC2)cc1N(CC)CCN(C)C : t
18) c1ccc(SSc2ccccc2)cc1 : f
19) Fc1ccc(C(c2ccc(F)cc2)N2CCNCC2)cc1 : t
20) CC(C)(C)NSc1nc2ccccc2s1 : f
21) O=C1CCCCCCCCCCCCCCCO1 : f
22) CC1=Nc2ccccc2C1(C)C : f
23) CC(C)(C)c1csc(-c2cc3cc(OCc4ccccc4CC(=O)O)ccc3o2)n1 : t
24) CCc1ccc(Br)cc1 : f
25) C=Cc1ccccc1C=C : f
26) C=C(C)c1cccc(C(=C)C)c1 : f
27) CCCC(=O)OC(C)(C)Cc1ccccc1 : f
28) COC1=C(OC)C(=O)C(CCCCCCCCCCO)=C(C)C1=O : f
